Tested on: Fibroblast
Assay: Multiplex assay against human fibroblast
Type: toxicity, cell-based
Details: 12 h, 10 µM, compound concentration 10 uM, replicate 1
PROPERTY: Total Cell Count
Kindly provide the number alone.

In the examples that follow, each entry is paired with its recorded Total Cell Count.
CNC(=O)Nc1ccc(-c2nc(N3CC4CCC(C3)O4)c3cnn(C4CCC5(CC4)OCCO5)c3n2)cc1: 104
CC1=C(C(=O)Nc2cc3cn[nH]c3cc2F)C(c2ccc(C(F)(F)F)cc2)CC(=O)N1 (stereo not drawn): 144
CCc1ccc(OCc2ccccc2C(=O)Nc2ccc3nc(C)cc(N)c3c2)cc1.Cl: 125

Task: Give the measured Total Cell Count of CC(C)NC(=O)N1CC[C@H](NC2=Nc3cc(F)ccc3N(CC(F)F)c3ccc(Cl)cc32)C1 .
Result: 160

Task: Give the measured Total Cell Count of COc1cc(Nc2nccc(-c3cnn4nc(OC)ccc34)n2)cc(C(F)(F)F)c1 .
Result: 283

Task: Give the measured Total Cell Count of O=c1cc(N2CCOCC2)oc2c(-c3cccc4c3sc3ccccc34)cccc12 .
Result: 171

Task: Give the measured Total Cell Count of C=CC(=O)Nc1ccc2[nH]c(=O)n(C3CCN(Cc4ccc(-c5nc6cc[nH]c(=O)c6cc5-c5ccccc5)cc4)CC3)c2c1 .
Result: 304

Task: Give the measured Total Cell Count of COc1cc2ncn(-c3cc(OCc4ccccc4C(F)(F)F)c(C(N)=O)s3)c2cc1OC [GW843682X] .
Result: 182

###

System: HEK-293T
Experiment: Multiplex assay against HEK293T
Format: toxicity, cell-based
Conditions: human, 48 h, 10 µM, compound concentration 10 uM, replicate 1
PROPERTY: Population Hoechst High Intensity Objects (%)
Kindly answer with a numeric value in %, unit omitted.

COC(=O)C1=C(C)NC(C)=C(C(=O)OCCCN2CCC(c3ccccc3)(c3ccccc3)CC2)[C@H]1c1cccc([N+](=O)[O-])c1 [NIGULDIPINE]: 14
CC(C)NC(=O)N1CC[C@H](NC2=Nc3cc(F)ccc3N(CC(F)F)c3ccc(Cl)cc32)C1: 19
Cl.O=C(O)c1cc(-c2ccc(C3CCNCC3)cc2)c2ccc(-c3ccc(C(F)(F)F)cc3)cc2c1: 21
O=C(c1cc2c(cc1F)OC(c1ccc(F)cc1)(c1ccc(Cl)cc1Cl)O2)N1CCOCC1 (stereo not given): 10
CC(C)Oc1ccccc1C(=O)Nc1ccccc1C(=O)Nc1cccc(S(=O)(=O)C(F)(F)F)c1: 13

Task: What reported Population Hoechst High Intensity Objects (%) corresponds to C#Cc1cccc(Nc2ncnc3cc(OCCOC)c(OCCOC)cc23)c1 [ERLOTINIB] on HEK-293T?
Result: 20

Task: What reported Population Hoechst High Intensity Objects (%) corresponds to CCc1ccc(OCc2ccccc2C(=O)Nc2ccc3nc(C)cc(N)c3c2)cc1.Cl on HEK-293T?
Result: 22

Task: What reported Population Hoechst High Intensity Objects (%) corresponds to CCc1nn(CCCN2CCN(c3cccc(Cl)c3)CC2)c(=O)n1CCOc1ccccc1.Cl [NEFAZODONE HYDROCHLORIDE] on HEK-293T?
Result: 15

Task: What reported Population Hoechst High Intensity Objects (%) corresponds to CC(C)OC(=O)N1CCC(Oc2ncnc3c2cnn3-c2ccc(S(C)(=O)=O)cc2F)CC1 on HEK-293T?
Result: 16

###

Reported Growth Rate values follow for various molecules
Tested on: Fibroblast
Assay: Incucyte cell viability with human fibroblast; further: filed as whole numbers so only -1 and 0 and 1 occur
Assay type: toxicity, cell-based
Conditions: 24 h, 10 µM, compound concentration 10 uM, replicate number 2, timepoint 24 hours
Kindly provide the number alone.

In the examples that follow, each entry is paired with its recorded Growth Rate.
Cc1cnc(-c2cc(Cl)ccc2F)cc1-n1c(=O)n(CC(N)=O)c2ccccc21: 0
C[C@H](NC[C@H](O)CP(=O)(O)CC1CCCCC1)c1ccc(Cl)c(Cl)c1.Cl: 1

Task: Give the measured Growth Rate of COC(=O)C1=C(C)NC(C)=C(C(=O)OCCCN2CCC(c3ccccc3)(c3ccccc3)CC2)[C@H]1c1cccc([N+](=O)[O-])c1 .
Result: 1

Task: Give the measured Growth Rate of Cc1noc([C@H]2C[C@@H](c3ccc(C(F)(F)F)cc3)CN(C(=O)N3CCS(=O)(=O)C3)C2)n1 .
Result: 1

Task: Give the measured Growth Rate of O=C(Cc1ccccc1)Nc1nc2ccc(Cl)cc2c2nc(-c3ccco3)nn12 .
Result: 1

Task: Give the measured Growth Rate of COC(=O)/C=C/c1cccc(N(Cc2ccc(-c3ccc(N(C)C)cc3)cc2)C(=O)C2CCCCC2)c1 .
Result: 0

Task: Give the measured Growth Rate of COc1ccccc1CN[C@H]1C2CCN(CC2)[C@H]1C(c1ccccc1)c1ccccc1 .
Result: 0

Task: Give the measured Growth Rate of O=S1(=O)c2cccc3cccc(c23)N1CCCN1CCN(c2ccc(F)cc2)CC1 .
Result: 0

###

Tested on: Fibroblast
Assay: Multiplex assay against human fibroblast
Assay type: toxicity, cell-based
Conditions: 12 h, 1 µM, compound concentration 1 uM, replicate 1
PROPERTY: Population Mitochondria Different-Phenotype (%)

CC(C)Oc1ccccc1C(=O)Nc1ccccc1C(=O)Nc1cccc(S(=O)(=O)C(F)(F)F)c1: 22%
C=CC(=O)Nc1cccc(Oc2nc(Nc3ccc(N4CCN(C)CC4)cc3OC)ncc2Cl)c1: 14%
O=c1cc(N2CCOCC2)oc2c(-c3cccc4c3sc3ccccc34)cccc12: 5%
COc1ccccc1CN[C@H]1C2CCN(CC2)[C@H]1C(c1ccccc1)c1ccccc1: 9%
COc1cc(Nc2nccc(-c3cnn4nc(OC)ccc34)n2)cc(C(F)(F)F)c1: 6%
O=c1[nH]c2ccccc2n1C1CCN(Cc2ccc(-c3[nH]c4cc5ncnc5cc4nc3-c3ccccc3)cc2)CC1: 3%

Task: Give the measured Population Mitochondria Different-Phenotype (%) of Cl.O=C(O)c1cc(-c2ccc(C3CCNCC3)cc2)c2ccc(-c3ccc(C(F)(F)F)cc3)cc2c1 .
Result: 5%

Task: Give the measured Population Mitochondria Different-Phenotype (%) of CC(C)(C)NC[C@H](O)COc1nsnc1N1CCOCC1 .
Result: 1%

Task: Give the measured Population Mitochondria Different-Phenotype (%) of CNC(=O)Nc1ccc(-c2nc(N3CC4CCC(C3)O4)c3cnn(C4CCC5(CC4)OCCO5)c3n2)cc1 .
Result: 4%

###

System: U2OS
Assay: Multiplex assay against U2OS
Type: toxicity, cell-based
Conditions: human, 24 h, 10 µM, compound concentration 10 uM, replicate 2
Decide using Population Mitotic Cells (%): a value greater than or equal to 20% is TRUE, a smaller one is FALSE.

The examples below pair each entry with its known result.
CCCSc1nc(N[C@@H]2C[C@H]2c2ccc(F)c(F)c2)c2nnn([C@@H]3C[C@H](OCCO)[C@@H](O)[C@H]3O)c2n1: FALSE
COC(=O)C1=C(C)NC(C)=C(C(=O)OCCCN2CCC(c3ccccc3)(c3ccccc3)CC2)[C@H]1c1cccc([N+](=O)[O-])c1: FALSE
CC1=C(C(=O)Nc2cc3cn[nH]c3cc2F)C(c2ccc(C(F)(F)F)cc2)CC(=O)N1 (centres undefined): TRUE
CC(C)(C)NC[C@H](O)COc1nsnc1N1CCOCC1: TRUE
CC(C)Oc1ccccc1C(=O)Nc1ccccc1C(=O)Nc1cccc(S(=O)(=O)C(F)(F)F)c1: FALSE
C=CC(=O)Nc1cccc(Oc2nc(Nc3ccc(N4CCN(C)CC4)cc3OC)ncc2Cl)c1: TRUE
COc1cc2ncn(-c3cc(OCc4ccccc4C(F)(F)F)c(C(N)=O)s3)c2cc1OC [GW843682X]: TRUE
CC(C)NC(=O)N1CC[C@H](NC2=Nc3cc(F)ccc3N(CC(F)F)c3ccc(Cl)cc32)C1: FALSE

Task: For this molecule, is measured Population Mitotic Cells (%) 20% or higher? Cc1ccccc1C(c1ccccc1C)N1C2CCC1CC(O)(c1ccccc1)C2 (centres undefined)
Result: TRUE

Task: For this molecule, is measured Population Mitotic Cells (%) 20% or higher? CCc1ccc(OCc2ccccc2C(=O)Nc2ccc3nc(C)cc(N)c3c2)cc1.Cl
Result: TRUE

Task: For this molecule, is measured Population Mitotic Cells (%) 20% or higher? Cc1cccc(CN2CCN(C(c3ccccc3)c3ccc(Cl)cc3)CC2)c1.Cl.Cl (centres undefined)
Result: TRUE

Task: For this molecule, is measured Population Mitotic Cells (%) 20% or higher? COc1ccc(-c2ccc3ncc4c(c3c2)n(-c2ccc(N3CCNCC3)c(C(F)(F)F)c2)c(=O)n4C)cn1.O=C(O)/C=C\C(=O)O
Result: FALSE

Task: For this molecule, is measured Population Mitotic Cells (%) 20% or higher? COc1ccccc1CN[C@H]1C2CCN(CC2)[C@H]1C(c1ccccc1)c1ccccc1
Result: TRUE

###

Test system: Fibroblast
Assay: Multiplex assay against human fibroblast
Assay type: toxicity, cell-based
Conditions: 12 h, 1 µM, compound concentration 1 uM, replicate 1
PROPERTY: Population Fragmented Nuclei (%)
Kindly answer with a numeric value in %, unit omitted.

In the examples that follow, each entry is paired with its recorded Population Fragmented Nuclei (%).
C[C@]12CC[C@@H]3c4ccc(O)cc4CC[C@H]3[C@@H]1CC[C@@H]2O: 30
COc1cc(Nc2nccc(-c3cnn4nc(OC)ccc34)n2)cc(C(F)(F)F)c1: 22
COC(=O)C1=C(C)NC(C)=C(C(=O)OCCCN2CCC(c3ccccc3)(c3ccccc3)CC2)[C@H]1c1cccc([N+](=O)[O-])c1: 17

Task: Give the measured Population Fragmented Nuclei (%) of CC(C)(C)NC[C@H](O)COc1nsnc1N1CCOCC1 .
Result: 22

Task: Give the measured Population Fragmented Nuclei (%) of Cc1ccc(C)c(Oc2ccncc2C(=O)N2CCN(C3CC3)c3ccccc32)c1 .
Result: 20
